tested on: EKVX NSCLC; experiment: NCI tumour cell line growth inhibition, 48 h; in the data active means GI50 below about 0.43 µM; inactive means the rest
Outcome (select one): active, inactive

# count of solved cases: 5
{"Molecule": "COc1ccc(-c2cc(-c3ccc(OC)c(OC)c3)nc(SCCCC(=O)NO)n2)cc1", "Label": "inactive"}
{"Molecule": "C#Cc1cccc(Nc2ncnc3cc(OCCOC)c(OCCOC)cc23)c1", "Label": "active"}
{"Molecule": "CC(CN(CP(=O)([O-])[O-])CP(=O)([O-])[O-])N(CP(=O)([O-])[O-])CP(=O)([O-])[O-].N.N.[Pt+2] (stereo unspecified)", "Label": "inactive"}
{"Molecule": "COc1cc(Nc2nc3cc(N)cc(N)c3nc2-c2ccccc2)cc(OC)c1", "Label": "inactive"}
{"Molecule": "COCCn1cc(-c2csc(-c3c[nH]c4ccccc34)n2)c2cccnc21", "Label": "inactive"}

Shifting focus to the molecule that follows.
Query: recorded result category for CC(=O)OC[C@H]1O[C@@H](n2ccc(=O)[nH]c2=O)[C@H](OC(C)=O)[C@@H]1OC(C)=O in this test
inactive

----------
Can you tell me TGI for the items I'm about to list?
system: K-562 leukemia; test: NCI tumour cell line growth inhibition, 48 h

# example entries with known answers
{"Compound": "CCOC(=O)COC1=Nc2cc(OC)c(OC)c3nc(Cl)cc(c23)C1=O", "Value type": "TGI", "Reported result": "7.2 µM"}
{"Compound": "CC12CCC3C(CC=C4CC(O)CCC43C)C1C/C(=C\\N1CCCC1)C2=O (configuration not stated)", "Value type": "TGI", "Reported result": "> 100 µM"}
{"Compound": "CN1C(=O)C(CCO)(C(C)(C)C)c2ccccc21 (configuration not stated)", "Value type": "TGI", "Reported result": "> 100 µM"}
{"Compound": "CCOC(=O)c1nc2ccccc2nc1Nc1ccc(F)cc1", "Value type": "TGI", "Reported result": "> 100 µM"}
{"Compound": "Cc1c(Cl)c(=O)oc2cc(OCC(O)COC(C)C)ccc12 (configuration not stated)", "Value type": "TGI", "Reported result": "> 100 µM"}

List TGI for every entry below, keeping the order given.
1. Nc1ccc2c(SCCSc3c4ccccc4nc4cc(N)ccc34)c3ccccc3nc2c1
2. CC(=O)NC1C(OCc2ccccc2)OC(CO)C(O)C1OCC(=O)N[C@@H](C)C(=O)N[C@H](CCC(=O)NCCCCNc1c2ccccc2nc2cccc([N+](=O)[O-])c12)C(N)=O (some centres not stated)
3. OCc1cn(Cc2cccc(Cl)c2)c2ccccc12
4. CCCC[C@H]1C(=O)O[C@H](C)[C@H](NC(=O)c2cccc(NC=O)c2O)C(=O)O[C@@H](C)[C@@H]1OC(=O)CC(C)C
5. Cc1c(/C=N/NS(=O)(=O)c2ccccc2)no[n+]1[O-]
6. OC1(C(O)(c2ccc(-c3ccccc3)cc2)c2ccc(-c3ccccc3)cc2)CCCCC1
7. COCCN(C(=O)c1ccccc1)C1CCC(=O)c2[nH]c3ccccc3c21 (configuration not stated)

1: > 100 µM; 2: > 100 µM; 3: 31.9 µM; 4: 57.7 µM; 5: > 100 µM; 6: > 100 µM; 7: 18.3 µM

List TGI for every entry below, keeping the order given.
1. CCC(=O)Nc1ccc(N2C(=O)/C(=C/c3ccc(O)c(OC)c3)N=C2c2ccccc2)cc1
2. OCCCCC#Cc1ccccc1C#Cc1ccccc1
3. CSc1nc2c(c(=O)[nH]1)N=C1c3ccccc3C(=O)C1C(c1ccc(F)cc1)N2 (configuration not stated)
4. O=c1[nH]nc(N/N=C\c2ccc(Cl)cc2)c2ccccc12
5. CC(=O)CCCCCCCCCCCC[C@@H]1CC[C@H](C)[C@H](O)N1
6. COC(=O)NC(Nc1ccc(C)cc1)(C(F)(F)F)C(F)(F)F
7. O=P1(N(CCCl)CCCl)NCCCO1 (configuration not stated)
8. COc1ccc2[nH]c(-c3ccccn3)cc(=O)c2c1

1. > 100 µM
2. > 100 µM
3. > 100 µM
4. 81.1 µM
5. > 100 µM
6. > 100 µM
7. > 230 µM
8. > 100 µM

List TGI for every entry below, keeping the order given.
1. O=C(/C=C/c1ccc(OCC(=O)N2CCN(c3ccccc3)CC2)cc1)c1ccc(Cl)cc1
2. COc1ccc(Nc2nc(NNC(=O)Cc3ccccc3)nc(NNC(=O)c3ccncc3)n2)cc1

1. > 100 µM
2. > 10 µM

----------
tested on: UO-31 renal; experiment: NCI tumour cell line growth inhibition, 48 h
Value type: TGI

# example entries with known answers
{"Molecule": "O=C(/C=C/c1cccnc1)NCCCCC1CCN(C(=O)c2ccccc2)CC1", "TGI": "> 100 µM"}
{"Molecule": "O=C(O)c1cc2ccccc2c(O)c1O", "TGI": "35.4 µM"}
{"Molecule": "Cc1cccc(=O)c([O-])c1.Cc1cccc(=O)c([O-])c1.Cc1cccc(=O)c([O-])c1.Cc1cccc(=O)c([O-])c1.[Th+4]", "TGI": "> 100 µM"}
{"Molecule": "Cn1c(O)c(/C=N/c2ncccn2)c(=O)[nH]c1=O", "TGI": "> 100 µM"}
{"Molecule": "O=S(=O)([O-])c1cccc2cccc(N=Cc3ccccc3[O-])c12.O=S(=O)([O-])c1cccc2cccc(N=Cc3ccccc3[O-])c12.[O]=[U]=[O]", "TGI": "> 100 µM"}

List TGI for every entry below, keeping the order given.
1. COc1ccc(/C=N/N=C(\N)NO)cc1OC
2. CCCCn1c2cc(OCc3cn(-c4ccc(Cl)cc4)nn3)ccc2c2ccnc(C)c21
3. CC(=O)NCC1OC2COC(c3ccccc3)OC2C2N=C(c3ccccc3)OC12 (stereo unspecified)
4. COC(=O)NC(Nc1ccc(C)cc1)(C(F)(F)F)C(F)(F)F
5. CCOC(=O)/C(C1=N[C@H](C(=O)OCC)CS1)=C(\O)c1ccccc1

> 100 µM
10 µM
> 100 µM
> 100 µM
> 100 µM

List TGI for every entry below, keeping the order given.
1. OCc1cn(Cc2cccc(Cl)c2)c2ccccc12
2. NC(=O)c1cnc(N[C@@H]2CCCC[C@@H]2N)nc1Nc1cccc(-n2nccn2)c1
3. CC(C)Oc1cc2c(cc1O)CC[C@@H]1[C@@H]2CC[C@]2(C)[C@@H](O)CC[C@@H]12

1: 41.4 µM; 2: 14.7 µM; 3: 46.6 µM

List TGI for every entry below, keeping the order given.
1. CC(=O)CCCCCCCCCCCC[C@@H]1CC[C@H](C)[C@H](O)N1
2. Oc1ccc(Cc2ccc(O)c3ncccc23)c2cccnc12
3. C[C@]12CCC3[C@@H](C[C@@H]4SC(Nc5ccccc5)=N[C@@]45CC(=O)CC[C@]35C)[C@@H]1CCC2=O (stereo partly specified)
4. O=C(O)c1cc(Nc2c(O)c3c(c(O)c2Cl)C(=O)C=CC3=O)ccc1O

["> 100 µM", "> 100 µM", "19.4 µM", "> 10 µM"]

----------
Can you tell me TGI for the items I'm about to list?
test system: M14 melanoma; assay: NCI tumour cell line growth inhibition, 48 h

{"Compound": "CC1Cc2c(cc(N)nc2Br)NC1=O (stereo not drawn)", "Value type": "TGI", "Reported result": "> 100 µM"}
{"Compound": "N#Cc1c(C(=O)c2ccccc2)cnn1-c1ccccc1", "Value type": "TGI", "Reported result": "> 25 µM"}
{"Compound": "Cc1ccc(C(CN(C)C)C(=O)c2ccccc2)cc1 (stereo not drawn)", "Value type": "TGI", "Reported result": "4.35 µM"}
{"Compound": "C/C(O)=C(\\N=O)C(=O)NCCc1ccccc1", "Value type": "TGI", "Reported result": "> 100 µM"}
{"Compound": "CCN1C2=NC(=O)N(C)C(=O)C2(Cl)C(C(SC)S(=O)(=O)c2ccc(C)cc2)c2ccccc21 (stereo not drawn)", "Value type": "TGI", "Reported result": "52.5 µM"}
{"Compound": "C/C(=N/S(=O)(=O)c1ccc(Cl)c(Cl)c1)OCC(C)(C)C", "Value type": "TGI", "Reported result": "> 100 µM"}

List TGI for every entry below, keeping the order given.
1. CCCN(CCCCC(NC(C)=O)C(=O)NCc1ccccc1)C(=O)NCCCl (stereo not drawn)
2. O=c1c2ccccc2c2ccccc2c(=O)n1-c1cc2c3ccccc3ccc2c2ccccc12
3. CC(C)C(=O)/C=C/c1ccccc1
4. O=C1c2c(O)cccc2Cc2cccc(O)c21
5. c1cc2c3c(c1)[C@@H]1O[C@@H]1c1cccc(c1-3)[C@@H]1O[C@H]21
6. C1CC[N-]CC1.C1CC[N-]CC1.C1CC[N-]CC1.C1CC[N-]CC1.[Cl][Rh][Cl]
7. CC(C)NCCNC(=O)c1ccccc1Nc1c(Cl)cccc1Cl

["> 100 µM", "> 100 µM", "> 100 µM", "1.97 µM", "34.1 µM", "> 100 µM", "25.1 µM"]
